target: ScBzz1-D1; test: SPOT peptide array binding signal intensity (averaged, normalized) (arbitrary units (background-subtracted, floor 0; scale differs between SH3 domains)); higher = stronger binding of the SH3 domain to the peptide
Answer not satisfied if SPOT peptide array binding signal intensity is under 50, and satisfied if it is 50 or more.

binder=FTLPPPPPPPGLDEL assigned_category="not satisfied"
binder=TKPTPPPKPSHLKPK assigned_category="not satisfied"
binder=HAPPLPPTAPPPPSL assigned_category="not satisfied"
binder=RKRRTHLRLPLIRSN assigned_category="not satisfied"
binder=ILARAILTIPRVLDK assigned_category="not satisfied"
binder=MPAPPPPPPPPPGAF assigned_category="not satisfied"
binder=NLPKRKPPKLQGPFS assigned_category="not satisfied"
binder=RTRRRPPPPPIPSTQ assigned_category=satisfied
binder=TKFRISLGLPVGAIM assigned_category=satisfied
binder=GRLRPKRIAPWHLIQ assigned_category="not satisfied"
binder=NIKVLLNPKLGKPVK assigned_category="not satisfied"
binder=KNPRRQLQIPRQQPS assigned_category="not satisfied"
binder=VGFRLALKFPSRITG assigned_category=satisfied
binder=KRNRLKILLPFLEQS assigned_category="not satisfied"
binder=EREKALPPIPFTTTL assigned_category="not satisfied"
binder=RRTRLRPPTPLSQLL assigned_category="not satisfied"
binder=HPRFVSPRIPSRIVK assigned_category=satisfied
binder=VQQDSLPKLPFRSWG assigned_category="not satisfied"
binder=RKRAPTPPAPSRSEK assigned_category=satisfied
binder=NPTKSPPPPPSPSTM assigned_category=satisfied
binder=ALRRRLPVTRSKINW assigned_category="not satisfied"
binder=VRVKKRPLIRPLNSS assigned_category="not satisfied"
